ASSAYED TARGET: c-Abl (Homo sapiens, UniProt P00519)
Sequence (P00519 242-493 limits assumed): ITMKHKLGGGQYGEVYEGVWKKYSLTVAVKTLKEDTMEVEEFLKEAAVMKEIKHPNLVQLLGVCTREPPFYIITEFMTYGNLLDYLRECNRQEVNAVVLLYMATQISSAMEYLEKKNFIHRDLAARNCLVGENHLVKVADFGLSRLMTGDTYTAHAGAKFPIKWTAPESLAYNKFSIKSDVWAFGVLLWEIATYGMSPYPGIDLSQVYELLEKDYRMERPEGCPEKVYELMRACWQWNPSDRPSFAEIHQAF
pIC50: −log10 of the molar value.
Use 8 as the dividing line for pIC50, with the line itself on the yes (1) side and lower values as no (0).

Answered cases to consult:
COMPOUND | CLASSIFICATION
CN(C)c1ncnc2[nH]c(-c3ccc(C(=O)N4CCOCC4)cc3)cc12 [Example 6] | yes (1)
CCN(CC)CCCNC(=O)c1ccc(-c2cc3c(N(C)C)ncnc3[nH]2)cc1 [Example 5] | no (0)

Now examine the next entry.
Prompt: Form field: pIC50 at least 8? Entry: CN(C)c1ncnc2[nH]c(-c3ccc(C(=O)NCCCN4CCOCC4)cc3)cc12 [Example 7]
Completion: no (0)

* * *

ASSAYED TARGET: c-Raf-1 (Homo sapiens, UniProt P04049)
Construct: made in house; host or cells: Sf21 insect cells, triple baculovirus infection (GST-c-Raf-1, v-Ras, v-Src)
Sequence (P04049 whole entry): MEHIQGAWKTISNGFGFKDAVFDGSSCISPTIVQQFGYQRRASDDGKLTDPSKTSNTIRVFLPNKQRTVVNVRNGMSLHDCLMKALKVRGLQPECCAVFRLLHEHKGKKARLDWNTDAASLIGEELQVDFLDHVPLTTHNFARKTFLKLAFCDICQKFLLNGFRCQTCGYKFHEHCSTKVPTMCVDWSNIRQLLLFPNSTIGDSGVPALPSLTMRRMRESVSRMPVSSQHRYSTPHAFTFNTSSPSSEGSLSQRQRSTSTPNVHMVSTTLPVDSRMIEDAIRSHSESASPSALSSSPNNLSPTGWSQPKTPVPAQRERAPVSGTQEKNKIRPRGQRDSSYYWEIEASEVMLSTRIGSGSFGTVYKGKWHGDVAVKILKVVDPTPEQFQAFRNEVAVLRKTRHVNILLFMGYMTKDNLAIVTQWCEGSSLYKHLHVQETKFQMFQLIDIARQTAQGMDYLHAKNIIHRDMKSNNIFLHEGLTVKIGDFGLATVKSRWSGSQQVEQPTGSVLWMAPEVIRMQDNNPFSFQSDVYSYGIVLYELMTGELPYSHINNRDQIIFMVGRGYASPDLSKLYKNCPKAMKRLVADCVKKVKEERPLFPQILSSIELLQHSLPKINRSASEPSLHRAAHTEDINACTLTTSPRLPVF
EXPERIMENT DESCRIPTION: c-Raf-1 protein kinase assay
Format: biochemical
Design: dose or concentration left out as unconfirmed
With a cut-off of 80%, any c-Raf-1/ %-inh. [%] strictly below it is called class 1; any c-Raf-1/ %-inh. [%] meeting it or above is called class 0.

Use these answered entries as a reference point.
SMILES DATA | CLASSIFICATION
CCC(O)(CC)c1ccc(-c2cc3c(NCCCn4cccc4)ncnc3[nH]2)cc1 | class 1
CN(C)c1ncnc2[nH]c(-c3ccc(C(=O)N4CCOCC4)cc3)cc12 | class 1
COCCN(C)Cc1ccc(-c2cc3c(N(C)C)ncnc3[nH]2)cc1 | class 1
CN(C)c1ncnc2[nH]c(-c3ccc(C(C)(C)O)cc3)cc12 | class 1
CCCN(C)c1ncnc2[nH]c(-c3ccc(CN4CCN(C)CC4)cc3)cc12 | class 0

Prompt: Given the entry "CCCNc1ncnc2[nH]c(-c3ccc(CN4CCN(C)CC4)cc3)cc12" , would its reported c-Raf-1/ %-inh. [%] be below 80%?
Completion: class 0

Prompt: Lab note: confirm whether the reported c-Raf-1/ %-inh. [%] for this molecule is below 80%, equality not counting. molecule: "CCCNc1ncnc2[nH]c(-c3ccc(C(=O)N4CCN(C)CC4)cc3)cc12"
Completion: class 0

Prompt: Just wondering, is c-Raf-1/ %-inh. [%] of "CN(C)c1ncnc2[nH]c(-c3ccc(Cc4ccc[nH]4)cc3)cc12" below 80%?
Completion: class 0

Prompt: Lab note: confirm whether the reported c-Raf-1/ %-inh. [%] for this molecule is below 80%, equality not counting. molecule: "CNc1ncnc2[nH]c(-c3ccc(CN4CCN(C)CC4)cc3)cc12"
Completion: class 1

* * *

ASSAYED TARGET: c-erbB2 tyrosine kinase (HER-2) (Homo sapiens, UniProt P04626)
Sequence (P04626 23-1255): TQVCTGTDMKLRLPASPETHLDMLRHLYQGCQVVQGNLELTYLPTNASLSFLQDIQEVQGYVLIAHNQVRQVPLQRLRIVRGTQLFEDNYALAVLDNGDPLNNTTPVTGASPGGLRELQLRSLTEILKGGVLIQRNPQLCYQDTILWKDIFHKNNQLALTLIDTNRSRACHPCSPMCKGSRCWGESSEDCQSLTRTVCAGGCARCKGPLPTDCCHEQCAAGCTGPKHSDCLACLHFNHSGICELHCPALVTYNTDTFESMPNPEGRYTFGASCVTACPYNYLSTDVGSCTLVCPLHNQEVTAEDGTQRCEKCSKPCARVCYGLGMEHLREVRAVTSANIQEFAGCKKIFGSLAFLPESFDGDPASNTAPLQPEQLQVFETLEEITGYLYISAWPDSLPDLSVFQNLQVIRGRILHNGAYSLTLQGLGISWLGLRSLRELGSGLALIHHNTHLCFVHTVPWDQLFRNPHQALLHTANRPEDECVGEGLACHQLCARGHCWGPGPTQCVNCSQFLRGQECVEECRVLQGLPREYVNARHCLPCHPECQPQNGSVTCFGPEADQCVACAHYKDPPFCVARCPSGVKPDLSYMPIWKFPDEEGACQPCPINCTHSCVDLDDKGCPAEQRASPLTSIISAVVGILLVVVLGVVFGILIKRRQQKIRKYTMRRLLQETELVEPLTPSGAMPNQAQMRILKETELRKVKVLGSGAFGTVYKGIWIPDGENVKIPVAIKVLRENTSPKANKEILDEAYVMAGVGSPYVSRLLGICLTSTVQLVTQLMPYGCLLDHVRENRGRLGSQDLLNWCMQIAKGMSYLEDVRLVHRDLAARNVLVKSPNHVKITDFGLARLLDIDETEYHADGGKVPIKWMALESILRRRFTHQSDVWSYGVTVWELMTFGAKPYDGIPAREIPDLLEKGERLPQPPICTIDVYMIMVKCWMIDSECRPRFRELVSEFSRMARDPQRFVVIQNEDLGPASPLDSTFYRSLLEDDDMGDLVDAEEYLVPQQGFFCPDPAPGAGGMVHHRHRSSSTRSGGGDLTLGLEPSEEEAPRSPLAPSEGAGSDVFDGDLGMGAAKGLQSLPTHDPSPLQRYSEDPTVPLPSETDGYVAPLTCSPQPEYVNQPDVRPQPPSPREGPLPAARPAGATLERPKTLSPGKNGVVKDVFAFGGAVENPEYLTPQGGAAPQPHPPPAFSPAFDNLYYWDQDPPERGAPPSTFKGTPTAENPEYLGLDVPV
EXPERIMENT DESCRIPTION: Inhibition of c-erbB2 tyrosine kinase (HER-2)
Format: biochemical
Design: dose or concentration left out as unconfirmed
EXPERIMENTAL READOUT: HER-2/%-inh. [%] (%)
Write the answer as a number in %, unit excluded.

SMILES DATA | ASSAYED TARGET | RECORDED VALUE
CCC(O)(CC)c1ccc(-c2cc3c(NCCCn4cccc4)ncnc3[nH]2)cc1 | c-erbB2 tyrosine kinase (HER-2) (Homo sapiens, UniProt P04626) | 88
CN(C)c1ncnc2[nH]c(-c3ccc(C(=O)N4CCOCC4)cc3)cc12 | c-erbB2 tyrosine kinase (HER-2) (Homo sapiens, UniProt P04626) | 80
CCCNc1ncnc2[nH]c(-c3ccc(CN4CCN(C)CC4)cc3)cc12 | c-erbB2 tyrosine kinase (HER-2) (Homo sapiens, UniProt P04626) | 94
CN(C)c1ncnc2[nH]c(-c3ccc(CNCCCO)cc3)cc12 | c-erbB2 tyrosine kinase (HER-2) (Homo sapiens, UniProt P04626) | 85

Here is another molecule to look at.
Prompt: Provide HER-2/%-inh. [%], tested on c-erbB2 tyrosine kinase (HER-2) (Homo sapiens, UniProt P04626), for "CN(C)c1ncnc2[nH]c(-c3ccc(Cn4cnnn4)cc3)cc12" .
Completion: 75

* * *

ASSAYED TARGET: VEGF receptor (KDR) (Homo sapiens, UniProt P35968)
Construct: expressed in transfected cells
Sequence (P35968 20-1356): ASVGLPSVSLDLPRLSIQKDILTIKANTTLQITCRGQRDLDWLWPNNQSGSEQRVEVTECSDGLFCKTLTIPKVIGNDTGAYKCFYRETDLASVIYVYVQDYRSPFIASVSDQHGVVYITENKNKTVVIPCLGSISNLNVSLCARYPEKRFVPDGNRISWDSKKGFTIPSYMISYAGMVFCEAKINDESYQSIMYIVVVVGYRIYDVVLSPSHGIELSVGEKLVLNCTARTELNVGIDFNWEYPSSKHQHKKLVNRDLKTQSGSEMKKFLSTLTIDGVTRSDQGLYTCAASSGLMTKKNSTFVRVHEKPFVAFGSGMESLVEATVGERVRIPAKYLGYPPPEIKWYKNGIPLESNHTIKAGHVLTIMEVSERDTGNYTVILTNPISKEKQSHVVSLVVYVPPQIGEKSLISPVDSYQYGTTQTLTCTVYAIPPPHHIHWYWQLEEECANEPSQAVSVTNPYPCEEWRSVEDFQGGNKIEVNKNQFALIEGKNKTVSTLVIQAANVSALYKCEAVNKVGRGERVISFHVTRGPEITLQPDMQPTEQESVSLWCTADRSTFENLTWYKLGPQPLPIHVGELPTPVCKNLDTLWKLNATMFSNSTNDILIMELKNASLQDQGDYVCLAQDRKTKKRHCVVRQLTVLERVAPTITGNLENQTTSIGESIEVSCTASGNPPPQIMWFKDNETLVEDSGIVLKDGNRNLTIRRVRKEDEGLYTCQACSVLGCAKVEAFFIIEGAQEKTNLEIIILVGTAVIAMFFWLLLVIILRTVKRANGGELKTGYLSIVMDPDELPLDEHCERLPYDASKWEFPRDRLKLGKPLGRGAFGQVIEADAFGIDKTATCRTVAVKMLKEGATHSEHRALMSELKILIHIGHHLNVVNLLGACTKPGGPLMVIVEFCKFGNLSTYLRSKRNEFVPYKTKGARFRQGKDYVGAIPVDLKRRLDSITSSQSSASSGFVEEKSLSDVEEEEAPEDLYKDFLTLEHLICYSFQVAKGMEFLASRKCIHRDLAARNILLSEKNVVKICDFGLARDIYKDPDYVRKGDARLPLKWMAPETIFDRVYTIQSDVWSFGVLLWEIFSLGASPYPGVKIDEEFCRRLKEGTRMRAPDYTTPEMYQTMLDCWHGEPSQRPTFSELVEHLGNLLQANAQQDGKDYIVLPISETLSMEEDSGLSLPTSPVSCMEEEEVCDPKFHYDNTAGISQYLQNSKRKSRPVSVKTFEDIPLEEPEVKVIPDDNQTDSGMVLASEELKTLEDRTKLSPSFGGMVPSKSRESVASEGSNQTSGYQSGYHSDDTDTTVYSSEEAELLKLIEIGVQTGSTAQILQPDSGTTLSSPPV
EXPERIMENT DESCRIPTION: Inhibition of VEGF-induced KDR-receptor autophosphorylation in transfected CHO cells
Format: cell-based
EXPERIMENTAL READOUT: KDR (% inh) (%)
Hi! Could you send only the number? It should be in %, unit omitted.

Some compounds with known KDR (% inh) results, for comparison:
SMILES DATA | VALUE UNIT | RECORDED VALUE
CNc1ncnc2[nH]c(-c3ccc(C(=O)N4CCN(C)CC4)cc3)cc12 | % | 67
CN1CCN(C(=O)c2ccc(-c3cc4c(NCCCO)ncnc4[nH]3)cc2)CC1 | % | 80
CN(C)c1ncnc2[nH]c(-c3ccc(C(=O)NCCCN4CCOCC4)cc3)cc12 | % | 79
COCCN(C)Cc1ccc(-c2cc3c(N(C)C)ncnc3[nH]2)cc1 | % | 76

Prompt: Give the value of KDR (% inh) reported for the following: "CN(C)c1ncnc2[nH]c(-c3ccc(C(C)(C)O)cc3)cc12"
Completion: 66

* * *

ASSAYED TARGET: c-erbB2 tyrosine kinase (HER-2) (Homo sapiens, UniProt P04626)
EXPERIMENT DESCRIPTION: Inhibition of c-erbB2 tyrosine kinase (HER-2)
Type: biochemical
Design: dose or concentration left out as unconfirmed
EXPERIMENTAL READOUT: HER-2/%-inh. [%] (%)
Kindly provide the numeric value in % only, without the unit symbol.

SMILES DATA | EXPERIMENTAL READOUT | RECORDED VALUE
CN1CCN(Cc2ccc(-c3cc4c(N(C)C)ncnc4[nH]3)cc2)CC1 | HER-2/%-inh. [%] | 87

Prompt: Quickly give me recorded HER-2/%-inh. [%] for "CN(C)c1ncnc2[nH]c(-c3ccc(Cn4ccnc4)cc3)cc12"
Completion: 93

Prompt: Assign HER-2/%-inh. [%] to the following record: "CN1CCN(C(=O)c2ccc(-c3cc4c(N(C)C)ncnc4[nH]3)cc2)CC1"
Completion: 78

* * *

ASSAYED TARGET: VEGF receptor (KDR) (Homo sapiens)
Construct: expressed in transfected cells
EXPERIMENT DESCRIPTION: Inhibition of VEGF-induced KDR-receptor autophosphorylation in transfected CHO cells
Format: cell-based
EXPERIMENTAL READOUT: KDR (% inh) (%)
State the answer as a number, implicitly in %.

These solved cases illustrate the format of a correct answer.
SMILES DATA | KDR (% inh) [%]
CN(C)c1ncnc2[nH]c(-c3ccc(CNCCCO)cc3)cc12 | 76
CCCN(C)c1ncnc2[nH]c(-c3ccc(CN4CCN(C)CC4)cc3)cc12 | 85
CNc1ncnc2[nH]c(-c3ccc(CN4CCN(C)CC4)cc3)cc12 | 85
CCCNc1ncnc2[nH]c(-c3ccc(CN4CCN(C)CC4)cc3)cc12 | 83
CCC(O)(CC)c1ccc(-c2cc3c(NCCCn4cccc4)ncnc3[nH]2)cc1 | 84
CCCNc1ncnc2[nH]c(-c3ccc(C(=O)N4CCN(C)CC4)cc3)cc12 | 81
CN(C)c1ncnc2[nH]c(-c3ccc(Cn4cnnn4)cc3)cc12 | 58
CN(C)c1ncnc2[nH]c(-c3ccc(C(=O)N4CCOCC4)cc3)cc12 | 83
CN1CCN(Cc2ccc(-c3cc4c(N(C)C)ncnc4[nH]3)cc2)CC1 | 86
CN(C)c1ncnc2[nH]c(-c3ccc(Cn4ccnc4)cc3)cc12 | 75

Prompt: Report KDR (% inh) on VEGF receptor (KDR) (Homo sapiens) for this entry: "CNc1ncnc2[nH]c(-c3ccc(C(C)(C)O)cc3)cc12"
Completion: 76

Prompt: Report measured KDR (% inh) on VEGF receptor (KDR) (Homo sapiens); entry: "CN1CCN(C(=O)c2ccc(-c3cc4c(N(C)C)ncnc4[nH]3)cc2)CC1"
Completion: 85

* * *

ASSAYED TARGET: EGF-R (HER-1) (Homo sapiens)
Sequence (P00533 25-1210): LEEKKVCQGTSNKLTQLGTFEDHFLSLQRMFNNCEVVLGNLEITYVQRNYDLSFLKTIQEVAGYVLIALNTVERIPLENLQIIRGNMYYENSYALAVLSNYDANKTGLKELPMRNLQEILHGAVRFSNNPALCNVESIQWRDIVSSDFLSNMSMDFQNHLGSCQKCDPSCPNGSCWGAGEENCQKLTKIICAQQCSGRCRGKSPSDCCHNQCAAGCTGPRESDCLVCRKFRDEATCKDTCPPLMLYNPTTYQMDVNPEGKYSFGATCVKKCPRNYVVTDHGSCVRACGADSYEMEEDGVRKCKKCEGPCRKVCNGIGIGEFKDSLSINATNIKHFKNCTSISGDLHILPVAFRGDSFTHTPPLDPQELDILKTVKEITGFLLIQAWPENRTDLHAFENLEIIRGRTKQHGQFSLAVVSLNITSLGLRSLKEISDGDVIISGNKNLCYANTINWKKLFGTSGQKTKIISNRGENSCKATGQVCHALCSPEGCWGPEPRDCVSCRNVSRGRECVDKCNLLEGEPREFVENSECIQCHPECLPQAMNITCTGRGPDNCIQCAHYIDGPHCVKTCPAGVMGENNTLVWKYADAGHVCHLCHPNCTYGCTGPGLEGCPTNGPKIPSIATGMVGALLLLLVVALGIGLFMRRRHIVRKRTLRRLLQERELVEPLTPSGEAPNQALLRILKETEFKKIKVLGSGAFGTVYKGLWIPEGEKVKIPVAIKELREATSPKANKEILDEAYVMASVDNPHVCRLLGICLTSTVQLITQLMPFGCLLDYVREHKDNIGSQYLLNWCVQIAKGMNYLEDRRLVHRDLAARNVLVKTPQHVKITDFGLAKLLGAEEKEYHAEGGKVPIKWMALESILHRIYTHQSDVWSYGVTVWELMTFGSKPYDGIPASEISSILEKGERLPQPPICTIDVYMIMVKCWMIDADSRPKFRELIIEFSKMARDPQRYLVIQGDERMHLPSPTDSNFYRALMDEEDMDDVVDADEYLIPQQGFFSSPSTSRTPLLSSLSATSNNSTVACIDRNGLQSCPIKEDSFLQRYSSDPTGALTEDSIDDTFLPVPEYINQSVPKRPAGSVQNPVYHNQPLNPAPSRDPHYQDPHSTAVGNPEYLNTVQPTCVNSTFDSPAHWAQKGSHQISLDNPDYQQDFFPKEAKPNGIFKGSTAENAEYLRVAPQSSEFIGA
EXPERIMENT DESCRIPTION: Inhibition of the tyrosine kinase activity of EGF-R (HER-1)
Type: biochemical
Set-up: dose or concentration left out as unconfirmed
We begin with a simple list: items and their reported HER-1/ %-inh. [%].
# unit: % | format: bare number

Here is how some compounds turned out for HER-1/ %-inh. [%].
COMPOUND | HER-1/ %-inh. [%] [%]
CCCNc1ncnc2[nH]c(-c3ccc(CN4CCN(C)CC4)cc3)cc12 [Example 18] | 98
CN(C)c1ncnc2[nH]c(-c3ccc(C(=O)NCCCN4CCOCC4)cc3)cc12 [Example 7] | 59
CNc1ncnc2[nH]c(-c3ccc(C(=O)N4CCN(C)CC4)cc3)cc12 [Example 12] | 85
CCC(O)(CC)c1ccc(-c2cc3c(NCCCn4cccc4)ncnc3[nH]2)cc1 [Example 33] | 98
CN(C)c1ncnc2[nH]c(-c3ccc(Cn4ccnc4)cc3)cc12 [Example 24] | 93

Prompt: Return value of HER-1/ %-inh. [%] for input CN(C)c1ncnc2[nH]c(-c3ccc(Cc4ccc[nH]4)cc3)cc12 [Example 25] , no commentary.
Completion: 57

Prompt: Name the recorded HER-1/ %-inh. [%] of the compound listed here: CNc1ncnc2[nH]c(-c3ccc(C(C)(C)O)cc3)cc12 [Example 35]
Completion: 90

Prompt: Identify HER-1/ %-inh. [%] associated with the compound CN1CCN(C(=O)c2ccc(-c3cc4c(N(C)C)ncnc4[nH]3)cc2)CC1 [Example 3]
Completion: 59

Prompt: Entry CN(C)c1ncnc2[nH]c(-c3ccc(CNCCCO)cc3)cc12 [Example 28] needs its HER-1/ %-inh. [%] filled in; supply it.
Completion: 85

Prompt: Fill in reported HER-1/ %-inh. [%] for this entry: CN1CCN(Cc2ccc(-c3cc4c(N(C)C)ncnc4[nH]3)cc2)CC1 [Example 4]
Completion: 64

Prompt: Check the records and state HER-1/ %-inh. [%] for CN1CCN(C(=O)c2ccc(-c3cc4c(NCCCO)ncnc4[nH]3)cc2)CC1 [Example 15]
Completion: 94

Prompt: State its HER-1/ %-inh. [%] for this compound: CN(C)c1ncnc2[nH]c(-c3ccc(C(=O)N4CCOCC4)cc3)cc12 [Example 6]
Completion: 70

Prompt: Please give the documented HER-1/ %-inh. [%] of CCCN(C)c1ncnc2[nH]c(-c3ccc(CN4CCN(C)CC4)cc3)cc12 [Example 19]
Completion: 97

Prompt: Please report the measured HER-1/ %-inh. [%] for CCCNc1ncnc2[nH]c(-c3ccc(C(=O)N4CCN(C)CC4)cc3)cc12 [Example 17]
Completion: 95

Prompt: Determine from records and report HER-1/ %-inh. [%] for COCCN(C)Cc1ccc(-c2cc3c(N(C)C)ncnc3[nH]2)cc1 [Example 29]
Completion: 79
